B1: library; a variant is named by its letters at N, in order (parent)
chain: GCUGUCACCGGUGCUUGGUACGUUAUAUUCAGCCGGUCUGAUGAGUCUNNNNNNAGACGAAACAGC

variants of: B1; test: normalized RNA/DNA level without ligand (relative to sTRSVctl = 100) (log10 (% of sTRSVctl)); HEK293T overexpressing SLC46A1; higher = less ribozyme self-cleavage, higher mRNA level; details: without (6R,S)-folinic acid; ligand present: no
normalized RNA/DNA level without ligand (log10) values by entry
Readout: normalized RNA/DNA level without ligand (log10)

>>> print(df.to_string())
                                         seq  reported_measurement
 0  GCUGUCACCGGUGCUUGGUACGUUAUAUUCAGCCGGUCUGAUGAGUCUGCCCGGAGACGAAACAGC                  2.09
 1  GCUGUCACCGGUGCUUGGUACGUUAUAUUCAGCCGGUCUGAUGAGUCUCUGCAAAGACGAAACAGC                  2.04
 2  GCUGUCACCGGUGCUUGGUACGUUAUAUUCAGCCGGUCUGAUGAGUCUUAGUCAAGACGAAACAGC                  1.98
 3  GCUGUCACCGGUGCUUGGUACGUUAUAUUCAGCCGGUCUGAUGAGUCUCAAUAGAGACGAAACAGC                  1.94
 4  GCUGUCACCGGUGCUUGGUACGUUAUAUUCAGCCGGUCUGAUGAGUCUGGUAAGAGACGAAACAGC                  1.92
 5  GCUGUCACCGGUGCUUGGUACGUUAUAUUCAGCCGGUCUGAUGAGUCUGUUGGAAGACGAAACAGC                  1.98
 6  GCUGUCACCGGUGCUUGGUACGUUAUAUUCAGCCGGUCUGAUGAGUCUGACAAUAGACGAAACAGC                  1.97
 7  GCUGUCACCGGUGCUUGGUACGUUAUAUUCAGCCGGUCUGAUGAGUCUGUAUGAAGACGAAACAGC                  1.99
 8  GCUGUCACCGGUGCUUGGUACGUUAUAUUCAGCCGGUCUGAUGAGUCUGCCGGCAGACGAAACAGC                  2.05
 9  GCUGUCACCGGUGCUUGGUACGUUAUAUUCAGCCGGUCUGAUGAGUCUAGAAGGAGACGAAACAGC                  1.93
10  GCUGUCACCGGUGCUUGGUACGUUAUAUUCAGCCGGUCUGAUGAGUCUUUCUAUAGACGAAACAGC                  1.99
11  GCUGUCACCGGUGCUUGGUACGUUAUAUUCAGCCGGUCUGAUGAGUCUAGUCUAAGACGAAACAGC                  1.99
12  GCUGUCACCGGUGCUUGGUACGUUAUAUUCAGCCGGUCUGAUGAGUCUACGCGUAGACGAAACAGC                  2.02
13  GCUGUCACCGGUGCUUGGUACGUUAUAUUCAGCCGGUCUGAUGAGUCUGCUGUGAGACGAAACAGC                  2.03
14  GCUGUCACCGGUGCUUGGUACGUUAUAUUCAGCCGGUCUGAUGAGUCUUGUGGAAGACGAAACAGC                  1.82
15  GCUGUCACCGGUGCUUGGUACGUUAUAUUCAGCCGGUCUGAUGAGUCUUCUUUGAGACGAAACAGC                  1.81
16  GCUGUCACCGGUGCUUGGUACGUUAUAUUCAGCCGGUCUGAUGAGUCUUCCUUGAGACGAAACAGC                  1.85
17  GCUGUCACCGGUGCUUGGUACGUUAUAUUCAGCCGGUCUGAUGAGUCUAACGAAAGACGAAACAGC                  1.95
18  GCUGUCACCGGUGCUUGGUACGUUAUAUUCAGCCGGUCUGAUGAGUCUGCUUAAAGACGAAACAGC                  1.98
19  GCUGUCACCGGUGCUUGGUACGUUAUAUUCAGCCGGUCUGAUGAGUCUCUAAUAAGACGAAACAGC                  1.97
20  GCUGUCACCGGUGCUUGGUACGUUAUAUUCAGCCGGUCUGAUGAGUCUUAGGAAAGACGAAACAGC                  1.88
21  GCUGUCACCGGUGCUUGGUACGUUAUAUUCAGCCGGUCUGAUGAGUCUCGCGGUAGACGAAACAGC                     2

All figures here come from the supplement of paper PMC6757056.
